- Test summary: solvent given as SMILES
- Condition context: in C1CCOC1
Measure: fluorescence lifetime (ns)

[1] CCOC(=O)c1ccccc1-c1c2ccc(=O)cc-2oc2cc(OC(=O)[C@H](CSCc3ccc(C)cc3)NC(=O)OC(C)(C)C)ccc12
[2] c1ccc(-c2cnc3nn4ccccc4c3c2)cc1
Prompt: Of 1 and 2 , whose reported fluorescence lifetime is the larger number? Refer to your chosen item by its label in the answer.
Response: 2
(2: 4.7 ns, 1: 2.49 ns)

====

- Test summary: solvent given as SMILES
- Condition context: in O=P(c1ccccc1)(c1ccccc1)c1cccc(-c2cc(-n3c4ccccc4c4ccccc43)cc(-n3c4ccccc4c4ccccc43)c2)n1
Below, each entry is listed with its recorded fluorescence lifetime.
Expressed in ns, but write only the number.

# count of solved cases: 3
N#Cc1nc2c3ccc(-n4c5ccccc5c5ccccc54)cc3c3cc(-n4c5ccccc5c5ccccc54)ccc3c2nc1C#N :: 29.5
CC1(C)c2ccccc2N(c2ccc(-c3ccc4c(c3)c3cc(-c5ccc(N6c7ccccc7C(C)(C)c7ccccc76)cc5)ccc3c3nc(C#N)c(C#N)nc43)cc2)c2ccccc21 :: 53.6
N#Cc1nc2c3ccc(-c4ccc(-n5c6ccccc6c6ccccc65)cc4)cc3c3cc(-c4ccc(-n5c6ccccc6c6ccccc65)cc4)ccc3c2nc1C#N :: 40.6

Field: next compound
Prompt: So what does the record say about fluorescence lifetime for `N#Cc1nc2c3ccc(N(c4ccccc4)c4ccccc4)cc3c3cc(N(c4ccccc4)c4ccccc4)ccc3c2nc1C#N` ?
Response: 13.4

====

- Test summary: solvent given as SMILES
- Condition context: in C1CCCCC1
Measure: fluorescence lifetime (ns)

A selection of reference data follows.
Cc1ccc(C2=C3C=CC(/C=C/c4ccccc4)=[N+]3[B-](F)(F)n3c(Cl)ccc32)cc1 :: 3.64
COc1ccc2c3c(OC)c4ccccc4c(OC)c3n(C)c2c1 :: 14.3
CN(C)c1ccc2nc(-c3ccc(/C=N/Nc4ccccc4)cc3)sc2c1 :: 2
Nc1ccccc1 :: 3.4
CCN(CC)c1ccc2c(C(F)(F)F)cc(=O)oc2c1 :: 4.1
Oc1ccccc1 :: 2.5
CN(C)c1ccc(-c2cc(-c3ccc4ccccc4c3)nc(-c3ccccc3)n2)cc1 :: 2.9
CC(C)(C)NC1=C2C=CC=[N+]2[B-](F)(F)n2cccc21 :: 6.17

[P] CN(C)c1ccc2nc(-c3ccc(C(=O)OC(C)(C)C)cc3)sc2c1
[Q] O=C1c2ccccc2-c2ccccc21
[R] C[Si](C)(C)c1ccc(C#N)c2ccccc12
Prompt: Rank order required: fluorescence lifetime, descending. Show the ranking through the labels, in the order asked for.
Response: R, P, Q
(R: 11 ns, P: 2.2 ns, Q: 0.4 ns)

====

- Test summary: solvent given as SMILES
- Condition context: in ClCCl
Measure: fluorescence lifetime (ns)

Illustrative cases are given below, each with its answer.
COC(=O)c1c2ccccc2nc2ccccc12 :: 1.3
CC(C)(C)c1ccc2c(c1)c1cc(C(C)(C)C)ccc1n2-c1ccc(C#Cc2ccc3c4ccc(C#Cc5ccc(C=C(C#N)C#N)cc5)cc4n(-c4ccc(C(F)(F)F)cc4)c3c2)cc1 :: 0.29
N#Cc1ccc(C2=Cc3ccccc3P2(=O)c2ccccc2)cc1 (stereo unspecified) :: 4.8
CC(C)(C)c1ccc(-c2nc3c4ccc(-c5ccc6ccccc6c5)cc4c4cc(-c5ccc6ccccc6c5)ccc4c3n2-c2ccc(C(C)(C)C)cc2)cc1 :: 6.6
O=P1(c2ccccc2)C(c2ccccc2)=Cc2cc3ccccc3cc21 (stereo unspecified) :: 3.5
c1ccc(N2c3ccccc3Sc3cc(-c4cccc5nc6ccccc6cc45)ccc32)cc1 :: 3.32
c1cc2c([nH]c3c4[nH]c5sccc5c4c4nsnc4c23)s1 :: 13.2
Cc1cc(C)n2c1C=C1c3ccccc3C(c3ccc[nH]3)=[N+]1[B-]2(F)F :: 7.28
CC(C)c1cccc(C(C)C)c1N1C(=O)c2cccc3c(Oc4ccc(C(C)(C)C)cc4)ccc(c23)C1=O :: 1.12
COc1ccc(/C2=C3N=C(C(c4ccccc4)=C/3c3ccccc3)/C(c3ccc(OC)cc3)=c3\[nH]/c(c(-c4ccccc4)c3-c3ccccc3)=C(/c3ccc(OC)cc3)C3=N/C(=C(/c4ccc(OC)cc4)c4[nH]c2c(-c2ccccc2)c4-c2ccccc2)C(c2ccccc2)=C3c2ccccc2)cc1 :: 0.921

[A] COc1ccc(Oc2ccc3c4c(cccc24)C(=O)N(c2c(C(C)C)cccc2C(C)C)C3=O)cc1
[B] CCOc1cccc2c1O[B-](F)(F)[n+]1c3c(c4c(c1-2)-c1ccccc1CC4)-c1ccccc1CC3
Prompt: Lower value of fluorescence lifetime belongs to which: A or B ? Pick one; state its label.
Response: B

[1] CCCCc1ccc2c(c1)c1ccc3cccc4c3c1c1c2c2cccc3ccc5c6cc(CCCC)ccc6c4c1c5c32
[2] N#Cc1cnc(-c2c3ccccc3c(-c3ccccc3)c3ccccc23)nc1
Prompt: I'm curious whether 1 or 2 has the smaller fluorescence lifetime number. Which is it? Bench note: the answer is the label of the chosen record.
Response: 2

[I] Cc1cc(C)n2c1C=C1c3ccccc3C(c3c[nH]c4ccccc34)=[N+]1[B-]2(F)F
[II] Cc1cc(C)c(-c2c3ccccc3c3ccc4cc5c(-c6c(C)cc(C)cc6C)c6ccccc6c6ccc7cc2c3c4c7c56)c(C)c1
[III] CCN(CC)c1ccc2c(-c3ccccc3C(=O)O)c3c([o+]c2c1)/C(=C/c1ccc(N2CCCC2)s1)CCC3
Prompt: Put the items in order so that reported fluorescence lifetime rises from first to last. Returns: the labels listed in the requested order.
Response: III, I, II
(III: 0.16 ns, I: 6.42 ns, II: 11.5 ns)

[A] COc1ccc(C#Cc2c3cc4cc(C)sc4cc3c(C#Cc3ccc(OC)cc3)c3cc4cc(C)sc4cc23)cc1
[B] c1ccc2c(c1)OP1(=NP3(=NP(Oc4ccc5ccc6cccc7ccc4c5c67)(Oc4ccc5ccc6cccc7ccc4c5c67)=N1)Oc1ccccc1-c1ccccc1O3)Oc1ccccc1-2
[C] C(=C\c1ccc(-c2ccncc2)cc1)/c1ccc(-c2ccncc2)cc1
Prompt: Hey, quick one: sort these by fluorescence lifetime, largest value first please. Labels, ranked as asked.
Response: A, B, C
(A: 7.7 ns, B: 1.23 ns, C: 0.85 ns)

====

- Test summary: solvent given as SMILES
- Condition context: in CS(C)=O
Measure: fluorescence lifetime (ns)

Cn1c(/C=C/c2ccc(/C=C/c3nc4ccccc4[nH]3)cc2)[n+](C)c2ccccc21 :: 1.22

[A] CSc1sc(C(=O)c2ccccc2)c2nn[nH]c(=O)c12
[B] COc1ccc(C#Cc2ccc(C#Cc3ccc(P(=O)(c4ccccc4)c4ccccc4)cc3)cc2)cc1
Prompt: Record comparison, field fluorescence lifetime: mark the lower of A and B . Bench note: the answer is the label of the chosen record.
Response: A
(A: 0.13 ns, B: 1.17 ns)

====

- Test summary: solvent given as SMILES
- Condition context: in O
Measure: fluorescence lifetime (ns)

Record excerpt, results attached:
CN(C)c1c2ccccc2cc2ccccc12 :: 5.7
CN(C)c1ccc2c(-c3cc(C(=O)[O-])ccc3C(=O)[O-])c3ccc(=[N+](C)C)cc-3oc2c1 :: 2.36
O=C([O-])c1ccccc1C1=c2cc3c4c(c2Oc2c1cc1c5c2CCCN5CCC1)CCC[N+]=4CCC3 :: 4.91
c1ccc2[nH]ccc2c1 :: 4.49
NS(=O)(=O)c1ccc(N2N=C(c3ccc(O)cc3)CC2c2ccc(Cl)cc2)cc1 (configuration not stated) :: 3.2

[1] N#Cc1cccc(N)c1
[2] NS(=O)(=O)c1ccc(N2N=C(c3ccc(O)cc3)CC2c2ccc([N+](=O)[O-])cc2)cc1 (configuration not stated)
[3] N#Cc1cccc2[nH]ccc12
Prompt: Sort entries by fluorescence lifetime from minimum to maximum value. Return value: ordered labels per request.
Response: 1, 2, 3

[I] CC[n+]1nc2cc3c4c(c2c2cc(C)ccc21)CCCN4CCC3
[II] COc1cc2cc(-c3ccc(C(=O)OCOC(C)=O)cc3C(=O)OCOC(C)=O)oc2cc1N1CCOCCOCCN(c2cc3oc(-c4ccc(C(=O)OCOC(C)=O)cc4C(=O)OCOC(C)=O)cc3cc2OC)CCOCCOCC1
Prompt: Which one would you say has the larger fluorescence lifetime value: I , or II ? Please reply using the label of the selected record.
Response: I
(I: 4.2 ns, II: 0.52 ns)

[1] Cn1ccc(-n2cncn2)nc1=O
[2] Cc1ccc2c(c1)c(=O)c1ccccc1n2CCCCCC(=O)O
[3] [NH3+]c1cc([NH3+])cc(-c2nc3ccccc3s2)c1
[4] [O-]c1ccc2ccccc2c1
Prompt: Rank order required: fluorescence lifetime, descending. Arrange the labels as the request states and list them.
Response: 2, 4, 1, 3

====

- Test summary: solvent given as SMILES
- Condition context: in CC#N
Measure: fluorescence lifetime (ns)

c1ccc(-c2nn(-c3ccccc3)c3nc4ccc(-n5c6ccccc6c6ccccc65)cc4cc23)cc1 :: 21.8

[I] COc1cc(C#Cc2ccccc2)c(C#Cc2ccccc2)cc1OC
[II] COc1ccc2cc(-c3ccc([N+](=O)[O-])cc3)ccc2c1
[III] O=C1c2ccccc2-c2c(-c3ccccc3)c(-c3ccccc3)c(-c3ccccc3)c3cccc1c23
[IV] CC(=O)OC[C@@H]1O[C@H](n2cnc3c2N=CN2Cc4c[n+](C)c(C)nc4N=C32)[C@@H](O)[C@H]1O
[V] Cc1ccc(-c2cc(C)[o+]c(C)c2)cc1
Prompt: Your job: order these 5 records by fluorescence lifetime, ascending. Please respond by ranking the labels in the order requested.
Response: II, III, I, IV, V
(II: 0.22 ns, III: 0.6 ns, I: 2.1 ns, IV: 3.5 ns, V: 8.7 ns)
